- testedTarget: Glycogen synthase kinase-3 alpha (Homo sapiens)
- Sequence (P49840 whole entry): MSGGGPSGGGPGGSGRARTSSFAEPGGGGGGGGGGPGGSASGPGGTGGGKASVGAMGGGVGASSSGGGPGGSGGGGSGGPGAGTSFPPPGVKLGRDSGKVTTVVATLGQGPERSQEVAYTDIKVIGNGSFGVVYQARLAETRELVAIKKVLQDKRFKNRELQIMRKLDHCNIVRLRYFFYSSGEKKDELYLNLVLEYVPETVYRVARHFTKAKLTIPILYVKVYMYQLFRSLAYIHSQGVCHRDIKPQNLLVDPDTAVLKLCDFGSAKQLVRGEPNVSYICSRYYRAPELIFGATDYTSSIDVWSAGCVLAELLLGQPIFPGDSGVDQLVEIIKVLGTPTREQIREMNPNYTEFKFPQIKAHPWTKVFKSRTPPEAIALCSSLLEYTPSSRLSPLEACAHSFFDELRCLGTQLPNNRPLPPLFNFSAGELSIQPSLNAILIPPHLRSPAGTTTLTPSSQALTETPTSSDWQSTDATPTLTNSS
- assayRemarks: Inhibition of human recombinant full length GSK3alpha using YRRAAVPPSPSLSRHSSPHQ(pS)EDEEE as substrate preincubated with enzyme for 10 mins followed by substrate and 25 uM ATP addition measured after 60 mins by ADP-Glo luminescence assay
experimentalEndpoint: IC50 (nM)
Numbers only, in nM.

Reference set, count: 3
compound	val
COc1cc(CCC(=O)Nc2cc(-c3[nH]c(SC)nc3-c3ccc(F)cc3)ccn2)cc(OC)c1OC	2050
C[S+]([O-])c1nc(-c2ccc(F)cc2)c(-c2ccnc(NC(=O)C3CC3)c2)[nH]1 (stereo unspecified)	1340
CSc1nc(-c2ccc(F)cc2)c(-c2ccnc(NC(=O)C3CC3)c2)[nH]1	300

Give one value of IC50 per listed compound.
1. CCc1nc(-c2ccc(F)cc2)c(-c2ccnc(NC(=O)C3CC3)c2)[nH]1
2. O=C(Nc1cc(-c2[nH]c(SCc3ccccc3)nc2-c2ccc(F)cc2)ccn1)C1CC1
3. O=C(Nc1cc(-c2[nH]c(Cc3ccccc3)nc2-c2ccc(F)cc2)ccn1)C1CC1

(A)
1. 301
2. 853
3. 428
